conditions: in n-pentanol, 303.15 K
ENDPOINT NAME: solubility (mole fraction)

For the molecule COC(=O)c1ccccc1S(N)(=O)=O , what solubility (mole fraction) is on record?
0.00424

---

settings: in cyclopentanone, 308.15 K
ENDPOINT NAME: solubility (mole fraction)

For the compound COC(=O)c1ccccc1S(N)(=O)=O , what solubility (mole fraction) is on record?
0.128

---

settings: in acetonitrile, 293.85 K
ENDPOINT NAME: solubility (mole fraction)

For the molecule COC(=O)c1ccccc1S(N)(=O)=O , what solubility (mole fraction) is on record?
0.0423

---

details: in n-propanol, 303.15 K
ENDPOINT NAME: solubility (mole fraction)
// print number alone

For the molecule COC(=O)c1ccccc1S(N)(=O)=O , what solubility (mole fraction) is on record?
0.00609

---

details: in 2-butanone, 303.45 K
ENDPOINT NAME: solubility (mole fraction)
// print number alone

For the molecule COC(=O)c1ccccc1S(N)(=O)=O , what solubility (mole fraction) is on record?
0.0691

---

details: in 2-pentanone, 287.95 K
ENDPOINT NAME: solubility (mole fraction)
// print number alone

For the compound COC(=O)c1ccccc1S(N)(=O)=O , what solubility (mole fraction) is on record?
0.0298

---

details: in ethanol, 283.15 K
ENDPOINT NAME: solubility (mole fraction)
// print number alone

For the compound COC(=O)c1ccccc1S(N)(=O)=O , what solubility (mole fraction) is on record?
0.00322

---

settings: in acetonitrile, 287.95 K
ENDPOINT NAME: solubility (mole fraction)

For the compound COC(=O)c1ccccc1S(N)(=O)=O , what solubility (mole fraction) is on record?
0.0339

---

details: in n-propanol, 298.05 K
ENDPOINT NAME: solubility (mole fraction)
// print number alone

For the compound COC(=O)c1ccccc1S(N)(=O)=O , what solubility (mole fraction) is on record?
0.00469

---

conditions: in n-propanol, 283.15 K
ENDPOINT NAME: solubility (mole fraction)
// print number alone

For the compound COC(=O)c1ccccc1S(N)(=O)=O , what solubility (mole fraction) is on record?
0.00206

---

details: in acetone, 273.15 K
ENDPOINT NAME: solubility (mole fraction)
// print number alone

For the molecule COC(=O)c1ccccc1S(N)(=O)=O , what solubility (mole fraction) is on record?
0.0414
